test: Clearance in Sprague-Dawley rat at 1 mg/kg, iv administered as single cassette dose by LC-MS/MS analysis; type: ADME, organism-based; conditions: in vivo
// false strictly below 2 L/h/kg in clearance; true otherwise

[
  {
    "COMPOUND_STRUCTURE_STRING": "COc1ccc(-c2ncc3c(c2F)-c2[nH]c4c(c2CC3)C(=O)NCC42CN(C)C2)cn1",
    "CLASS_NAME": "false"
  },
  {
    "COMPOUND_STRUCTURE_STRING": "CN1CC2(CNC(=O)c3c2[nH]c2c3CCc3cnc(-c4cccc(F)c4)nc3-2)C1",
    "CLASS_NAME": "false"
  },
  {
    "COMPOUND_STRUCTURE_STRING": "CN1CC2(CNC(=O)c3c2[nH]c2c3CCc3cnc(-c4cccc(F)c4)c(F)c3-2)C1",
    "CLASS_NAME": "false"
  },
  {
    "COMPOUND_STRUCTURE_STRING": "CN1CC2(CNC(=O)c3c2[nH]c2c3CCc3cnc(-c4cccc(F)c4)cc3-2)C1",
    "CLASS_NAME": "true"
  },
  {
    "COMPOUND_STRUCTURE_STRING": "COc1ccc(-c2ncc3c(c2F)-c2[nH]c4c(c2CC3)C(=O)NCC42CN(C)C2)cc1F",
    "CLASS_NAME": "false"
  }
]
